Item-by-item account of IKZF3 Ymin
Target: IKZF3 (Aiolos) (Homo sapiens, UniProt Q96SW2+Q9UKT9)
Construct: endogenous in cells; host or cells: DF15 (HiBiT knock-in)
Sequence (Q9UKT9 whole entry): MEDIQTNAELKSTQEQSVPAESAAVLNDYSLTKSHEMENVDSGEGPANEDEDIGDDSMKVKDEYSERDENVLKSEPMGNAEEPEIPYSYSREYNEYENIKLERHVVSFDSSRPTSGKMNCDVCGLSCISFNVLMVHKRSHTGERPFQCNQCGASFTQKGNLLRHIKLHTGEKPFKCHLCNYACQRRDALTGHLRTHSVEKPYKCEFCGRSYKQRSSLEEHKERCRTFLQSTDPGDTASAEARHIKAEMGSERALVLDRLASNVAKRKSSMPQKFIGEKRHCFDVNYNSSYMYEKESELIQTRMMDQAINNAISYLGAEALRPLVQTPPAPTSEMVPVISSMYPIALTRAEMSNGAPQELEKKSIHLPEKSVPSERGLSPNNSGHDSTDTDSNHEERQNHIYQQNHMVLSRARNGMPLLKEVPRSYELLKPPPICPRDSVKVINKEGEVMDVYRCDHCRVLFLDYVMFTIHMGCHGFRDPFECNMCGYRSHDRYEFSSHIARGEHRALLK
Sequence (Q96SW2 whole entry): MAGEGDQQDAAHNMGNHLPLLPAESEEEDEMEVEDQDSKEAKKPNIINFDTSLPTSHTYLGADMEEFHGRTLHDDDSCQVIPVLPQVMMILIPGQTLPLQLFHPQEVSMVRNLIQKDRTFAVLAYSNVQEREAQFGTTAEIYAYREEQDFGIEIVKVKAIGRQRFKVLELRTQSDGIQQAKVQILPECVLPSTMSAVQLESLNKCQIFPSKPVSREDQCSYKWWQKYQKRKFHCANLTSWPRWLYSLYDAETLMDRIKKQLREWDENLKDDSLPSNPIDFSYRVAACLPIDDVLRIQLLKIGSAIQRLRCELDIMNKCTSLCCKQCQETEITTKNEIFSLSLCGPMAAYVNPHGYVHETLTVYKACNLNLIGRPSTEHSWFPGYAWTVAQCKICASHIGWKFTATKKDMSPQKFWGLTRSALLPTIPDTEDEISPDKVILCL
Sequence (Q16531 whole entry partner): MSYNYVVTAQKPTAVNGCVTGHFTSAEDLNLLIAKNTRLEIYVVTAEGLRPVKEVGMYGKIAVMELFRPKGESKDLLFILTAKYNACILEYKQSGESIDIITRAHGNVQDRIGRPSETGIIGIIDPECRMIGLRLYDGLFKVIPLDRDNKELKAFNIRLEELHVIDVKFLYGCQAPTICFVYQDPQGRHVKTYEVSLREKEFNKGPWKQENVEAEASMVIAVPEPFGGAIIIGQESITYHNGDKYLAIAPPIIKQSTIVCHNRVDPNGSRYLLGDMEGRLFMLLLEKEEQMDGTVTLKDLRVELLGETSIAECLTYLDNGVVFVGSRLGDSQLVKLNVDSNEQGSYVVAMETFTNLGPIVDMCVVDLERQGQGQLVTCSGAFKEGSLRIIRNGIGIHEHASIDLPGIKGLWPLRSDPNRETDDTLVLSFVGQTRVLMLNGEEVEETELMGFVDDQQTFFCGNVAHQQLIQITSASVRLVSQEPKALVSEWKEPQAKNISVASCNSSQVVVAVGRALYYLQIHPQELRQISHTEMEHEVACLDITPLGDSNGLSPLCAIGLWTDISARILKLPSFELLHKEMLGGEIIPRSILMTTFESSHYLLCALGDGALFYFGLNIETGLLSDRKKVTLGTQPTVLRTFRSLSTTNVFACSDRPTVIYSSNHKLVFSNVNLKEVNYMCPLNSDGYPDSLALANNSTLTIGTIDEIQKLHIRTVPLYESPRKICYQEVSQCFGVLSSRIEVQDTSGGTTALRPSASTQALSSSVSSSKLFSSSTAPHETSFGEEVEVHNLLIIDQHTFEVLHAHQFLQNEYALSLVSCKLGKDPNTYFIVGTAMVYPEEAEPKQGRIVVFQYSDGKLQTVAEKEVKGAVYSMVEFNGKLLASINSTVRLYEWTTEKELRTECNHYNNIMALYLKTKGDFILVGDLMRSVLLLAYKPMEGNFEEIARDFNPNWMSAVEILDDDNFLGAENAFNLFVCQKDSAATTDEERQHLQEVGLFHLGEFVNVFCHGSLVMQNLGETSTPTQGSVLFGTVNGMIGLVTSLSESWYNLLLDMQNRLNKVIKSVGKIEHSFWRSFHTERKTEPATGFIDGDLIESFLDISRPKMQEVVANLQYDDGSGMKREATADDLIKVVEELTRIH
Assay: HiBiT degradation assay, DF15/HiBiT-IKZF3 KI cells
Type: cell-based
Details: depth of degradation (100% = no reduction of protein level, 0% = complete degradation), 4 hr, N ≥ 3
observation_type: IKZF3 Ymin (%)

[[record]]
compound = "O=C1CCC(N2C(=O)c3ccc([C@@H]4C[C@]4(C(=O)OCC(Cl)(Cl)Cl)c4ccc(Br)cc4)cc3C2=O)C(=O)N1 (stereo partly shown) [Compound 16a]"
measure_unit = "%"
measurement = 94

[[record]]
compound = "O=C1CCC(N2Cc3ccc([C@@H]4C[C@]4(C(=O)OCC(Cl)(Cl)Cl)c4ccc(Br)cc4)cc3C2=O)C(=O)N1 (stereo partly shown) [Compound 17a]"
measure_unit = "%"
measurement = 95

[[record]]
compound = "O=C1CCC(N2Cc3cc(C4=C[C@]4(C(=O)OCC(Cl)(Cl)Cl)c4ccc(Br)cc4)ccc3C2=O)C(=O)N1 (stereo partly shown) [Compound 21a]"
measure_unit = "%"
measurement = 95

[[record]]
compound = "O=C1CCC(N2Cc3cc([C@@H]4C[C@]4(C(=O)OCC(Cl)(Cl)Cl)c4ccc(Br)cc4)ccc3C2=O)C(=O)N1 (stereo partly shown) [Compound 15a]"
measure_unit = "%"
measurement = 100

[[record]]
compound = "O=C1CCC(N2Cc3ccc(C4=C[C@@]4(C(=O)OCC(Cl)(Cl)Cl)c4ccc(Br)cc4)cc3C2=O)C(=O)N1 (stereo partly shown) [Compound 23b]"
measure_unit = "%"
measurement = 81

[[record]]
compound = "O=C1CCC(N2C(=O)c3cccc([C@@H]4C[C@]4(C(=O)OCC(Cl)(Cl)Cl)c4ccc(Br)cc4)c3C2=O)C(=O)N1 (stereo partly shown) [Compound 14a]"
measure_unit = "%"
measurement = 89

[[record]]
compound = "O=C1CCC(N2C(=O)c3ccc(C4=C[C@]4(C(=O)OCC(Cl)(Cl)Cl)c4ccc(Br)cc4)cc3C2=O)C(=O)N1 (stereo partly shown) [Compound 22a]"
measure_unit = "%"
measurement = 73

[[record]]
compound = "O=C1CCC(N2C(=O)c3ccc([C@H]4C[C@@]4(C(=O)OCC(Cl)(Cl)Cl)c4ccc(Br)cc4)cc3C2=O)C(=O)N1 (stereo partly shown) [Compound 16b]"
measure_unit = "%"
measurement = 97

[[record]]
compound = "O=C1CCC(N2Cc3cc(C4=C[C@@]4(C(=O)OCC(Cl)(Cl)Cl)c4ccc(Br)cc4)ccc3C2=O)C(=O)N1 (stereo partly shown) [Compound 21b]"
measure_unit = "%"
measurement = 79

[[record]]
compound = "O=C1CCC(N2Cc3cc([C@H]4C[C@@]4(C(=O)OCC(Cl)(Cl)Cl)c4ccc(Br)cc4)ccc3C2=O)C(=O)N1 (stereo partly shown) [Compound 15b]"
measure_unit = "%"
measurement = 89

[[record]]
compound = "O=C1CCC(N2Cc3cccc([C@H]4C[C@@]4(C(=O)OCC(Cl)(Cl)Cl)c4ccc(Br)cc4)c3C2=O)C(=O)N1 (stereo partly shown) [Compound 18b]"
measure_unit = "%"
measurement = 96

[[record]]
compound = "O=C1CCC(N2Cc3ccc([C@H]4C[C@@]4(C(=O)OCC(Cl)(Cl)Cl)c4ccc(Br)cc4)cc3C2=O)C(=O)N1 (stereo partly shown) [Compound 17b]"
measure_unit = "%"
measurement = 89

[[record]]
compound = "O=C1CCC(N2Cc3cccc(C4=C[C@@]4(C(=O)OCC(Cl)(Cl)Cl)c4ccc(Br)cc4)c3C2=O)C(=O)N1 (stereo partly shown) [Compound 24b]"
measure_unit = "%"
measurement = 93

[[record]]
compound = "O=C1CCC(N2Cc3cccc([C@@H]4C[C@]4(C(=O)OCC(Cl)(Cl)Cl)c4ccc(Br)cc4)c3C2=O)C(=O)N1 (stereo partly shown) [Compound 18a]"
measure_unit = "%"
measurement = 91

[[record]]
compound = "O=C1CCC(N2Cc3cccc(C4=C[C@]4(C(=O)OCC(Cl)(Cl)Cl)c4ccc(Br)cc4)c3C2=O)C(=O)N1 (stereo partly shown) [Compound 24a]"
measure_unit = "%"
measurement = 97

[[record]]
compound = "O=C1CCC(N2Cc3ccc(C4=C[C@]4(C(=O)OCC(Cl)(Cl)Cl)c4ccc(Br)cc4)cc3C2=O)C(=O)N1 (stereo partly shown) [Compound 23a]"
measure_unit = "%"
measurement = 94

[[record]]
compound = "O=C1CCC(N2C(=O)c3ccc(C4=C[C@@]4(C(=O)OCC(Cl)(Cl)Cl)c4ccc(Br)cc4)cc3C2=O)C(=O)N1 (stereo partly shown) [Compound 22b]"
measure_unit = "%"
measurement = 71

[[record]]
compound = "O=C1CCC(N2Cc3c(cccc3[C@H]3C[C@@]3(C(=O)OCC(Cl)(Cl)Cl)c3ccc(Br)cc3)C2=O)C(=O)N1 (stereo partly shown) [Compound 13b]"
measure_unit = "%"
measurement = 97

[[record]]
compound = "O=C1CCC(N2C(=O)c3cccc(C4=C[C@]4(C(=O)OCC(Cl)(Cl)Cl)c4ccc(Br)cc4)c3C2=O)C(=O)N1 (stereo partly shown) [Compound 20a]"
measure_unit = "%"
measurement = 40


Ref: paper PMC11403733
